- RUN DESCRIPTION: cells
- SETTINGS: Homo sapiens, DLD-1, 240 h, read-out: Cell viability assay IC50 (nM), CTG assay, CellTiter Glo, read on Day 10; cell line not given
For each entry below, report its log10 of IC50 value.
Please note: log10 values; quantity IC50; unit nM.

# count of solved cases: 5
COMPOUND	NUMBER
COc1cnc(Cl)cc1-c1cc(C)ncc1C(=O)Nc1nc2cnc(-c3c(C)nn(C)c3C#N)cc2s1 [Example 150]	1.33
COc1cnc(Cl)c(F)c1-c1cc(C)ncc1C(=O)Nc1nc2ncc(N3CCOCC3)cc2s1 [Example 49]	1.73
COc1cnc(Cl)cc1-c1cc(C)ncc1C(=O)Nc1nc2ncc(N3CCC(N)CC3)cc2s1 [Example 58]	3.53
COc1cnc(Cl)cc1-c1cc(C)ncc1C(=O)Nc1nc2ncc(NS(C)(=O)=O)cc2s1 [Example 63]	3.23
COc1cnc(Cl)cc1-c1cc(C)ncc1C(=O)Nc1nc2ncc(-c3ccc(N4CCNCC4)cc3)cc2s1 [Example 81]	1.48

Quick batch: log10 of IC50 for everything below.
1. COc1cnc(Cl)cc1-c1cc(C)ncc1C(=O)Nc1nc2cnc(C3=CC[C@@H](O)CC3)cc2s1 [Example 115]
2. COc1cnc(Cl)cc1-c1cnccc1C(=O)Nc1nc2ccc([C@H]3CC[C@H](O)CC3)nc2s1 [Example 34]
3. COc1cnc(Cl)cc1-c1cc(C)ncc1C(=O)Nc1nc2ncc(-c3ccnc(N4CCN[C@H](C)C4)c3)cc2s1 [Example 105]
4. COc1cnc(Cl)cc1-c1cc(C(F)(F)F)ncc1C(=O)Nc1nc2ccc(N3CCC(O)CC3)nc2s1 [Example 122]

**A:**
0.42
3.30
2.18
3.43

Quick batch: log10 of IC50 for everything below.
1. COc1cnc(Cl)cc1-c1cc(C)ncc1C(=O)Nc1nc2ccc(C3=CCN(C)CC3)nc2s1 [Example 10]
2. COc1cnc(Cl)cc1-c1cc(C)ncc1C(=O)Nc1nc2cnc(C3=CCC(O)CC3)cc2s1 (stereo not drawn) [Example 11]
3. COc1cnc(Cl)cc1-c1cc(C)ncc1C(=O)Nc1nc2cnc(-c3c(C)cnn3C(C)C)cc2s1 [Example 212]
4. COc1cnc(Cl)cc1-c1cc(C)ncc1C(=O)Nc1nc2ncc(CN3CCC(O)CC3)cc2s1 [Example 144]

**A:**
2.65
1.05
0.35
3.35

Quick batch: log10 of IC50 for everything below.
1. COc1cnc(Cl)cc1-c1cc(C)ncc1C(=O)Nc1nc2c(CO)cc(-c3c(C)cnn3C)cc2s1 [Example 170]
2. COc1cnc(Cl)cc1-c1cc(C)ncc1C(=O)Nc1nc2ncc(C(C)(C)O)cc2s1 [Example 95]
3. COc1cnc(Cl)cc1-c1cc(C)ncc1C(=O)Nc1nc2ncc(NC3CCN(S(C)(=O)=O)CC3)cc2s1 [Example 69]
4. COc1cnc(Cl)c(F)c1-c1cc(C)ncc1C(=O)Nc1nc2ccc(N3CCC(CO)CC3)nc2s1 [Example 129]
5. COc1cnc(Cl)cc1-c1cc(C)ncc1C(=O)Nc1nc2cc(F)c(-c3c(C)nnn3C)nc2s1 [Example 227]
6. COc1cnc(Cl)cc1-c1cc(C)ncc1C(=O)Nc1nc2ncc(N3CCC(CO)CC3)cc2s1 [Example 98]
7. COc1cnc(Cl)cc1-c1cc(C)ncc1C(=O)Nc1nc2ncc(C3CCOCC3)cc2s1 [Example 37]
8. COc1cnc(Cl)cc1-c1cc(C)ncc1C(=O)Nc1nc2ncc(N3CC4CC3CC4O)cc2s1 (stereo not drawn) [Example 62]

**A:**
1. 2.92
2. 2.58
3. 1.97
4. 0.99
5. 2.05
6. 1.03
7. 1.65
8. 2.80

Quick batch: log10 of IC50 for everything below.
1. COc1cnc(Cl)cc1-c1cc(C)ncc1C(=O)Nc1nc2ccc([C@H]3CC[C@H](O)CC3)nc2s1 [Example 29]
2. COc1cnc(Cl)cc1-c1cc(C)ncc1C(=O)Nc1nc2ncc(C3=CCC4(CC3)CC(O)C4)cc2s1 (stereo not drawn) [Example 77]

**A:**
2.12
0.87

----------
- TARGET SYSTEM: helicase domain of the Pol θ protein (Homo sapiens, UniProt O75417)
- Construct: The helicase domain of the Pol θ protein was purified from insect protein expression system; made in house; host or cells: insect protein expression system
- Sequence (O75417 102-554 limits assumed): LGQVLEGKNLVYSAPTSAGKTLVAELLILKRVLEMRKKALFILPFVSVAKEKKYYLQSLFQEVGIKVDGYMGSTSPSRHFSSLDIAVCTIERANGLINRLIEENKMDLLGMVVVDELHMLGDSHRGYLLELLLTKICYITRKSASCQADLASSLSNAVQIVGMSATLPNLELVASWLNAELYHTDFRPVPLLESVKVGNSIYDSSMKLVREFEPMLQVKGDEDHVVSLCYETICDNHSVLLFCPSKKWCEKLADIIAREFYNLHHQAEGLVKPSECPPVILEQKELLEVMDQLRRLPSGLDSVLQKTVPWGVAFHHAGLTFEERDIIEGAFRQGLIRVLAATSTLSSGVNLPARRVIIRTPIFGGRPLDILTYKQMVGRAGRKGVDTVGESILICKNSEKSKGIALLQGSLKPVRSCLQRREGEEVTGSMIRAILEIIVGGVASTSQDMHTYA
- RUN DESCRIPTION: Biochemical Activity Assay (ADP Glo Assay) of Pol θ inhibitor, ATPase activity
- SETTINGS: ADP-Glo assay, ATPase activity of Pol θ helicase domain, ssDNA substrate; read-out: Biochemical assay IC50
READOUT TYPE: pIC50
Give bare numbers, as −log10 of the molar value.

# count of solved cases: 6
COc1cnc(Cl)cc1-c1cc(C)ncc1C(=O)Nc1nc2cnc(-c3c(C)cnn3C)cc2s1 8.72
COc1cnc(Cl)cc1-c1cc(C)ncc1C(=O)Nc1nc2ccc(N3CCC(CO)CC3)nc2s1 8.01
COc1cnc(Cl)cc1-c1cc(C)ncc1C(=O)Nc1nc2ncc(N3CCC(N)CC3)cc2s1 7.96
COc1cnc(Cl)cc1-c1cc(C)ncc1C(=O)Nc1nc2cc(F)c(-c3ccc(P4(=O)CCCC4)cc3)cc2s1 8.29
COc1cnc(Cl)cc1-c1cc(C)ncc1C(=O)Nc1nc2cnc(-c3c(C)nnn3C)c(C)c2s1 8.07
COc1cnc(Cl)cc1-c1cc(C)ncc1C(=O)Nc1nc2cnc(-c3c(C)nn(C)c3C)cc2s1 8.60

**Q:** Item COc1cnc(Cl)cc1-c1cc(C)ncc1C(=O)Nc1nc2cnc(-c3c(C)nnn3C)c(F)c2s1 has what recorded pIC50?
**A:** 8.48

----------
- RUN DESCRIPTION: Mouse PK assay after oral administration
- SETTINGS: mice, oral, administration dose 30 mg/kg, plasma
For each entry below, report its Area under curve (0-t; hr * ng/mL) value.
Give bare numbers, in µg·h/mL.

# count of solved cases: 2
COc1cnc(Cl)c(F)c1-c1cc(C)ncc1C(=O)Nc1nc2cnc(-c3c(C)nnn3C)cc2s1 429.051
COc1cnc(Cl)cc1-c1cc(C)ncc1C(=O)Nc1nc2cnc(-c3c(C)nnn3C)cc2s1 293.209

Quick batch: Area under curve (0-t; hr * ng/mL) for everything below.
1. COc1cnc(Cl)cc1-c1cc(C)ncc1C(=O)Nc1nc2cnc(-c3c(C)noc3C)cc2s1
2. COc1cnc(Cl)c(F)c1-c1cc(C)ncc1C(=O)Nc1nc2cnc(-c3c(C)nnn3C)c(F)c2s1
3. COc1cnc(C(F)F)cc1-c1cc(C)ncc1C(=O)Nc1nc2cnc(-c3c(C)nnn3C)cc2s1
4. COc1cnc(C(F)F)cc1-c1cc(C)ncc1C(=O)Nc1nc2cnc(-c3c(C)noc3C)cc2s1
5. COc1cnc(Cl)cc1-c1cc(C)ncc1C(=O)Nc1nc2cnc(-c3c(C)nnn3C)c(F)c2s1

**A:**
1: 321.917; 2: 852.39; 3: 176.788; 4: 581.387; 5: 385.297

----------
- RUN DESCRIPTION: cells
- SETTINGS: Homo sapiens, DLD-1, 240 h, read-out: Cell viability assay IC50 (nM), CTG assay, CellTiter Glo, read on Day 10; cell line not given
For each entry below, report its IC50 value.
Give bare numbers, in nM.

# count of solved cases: 3
COMPOUND	RESULT UNIT	IC50
COc1cnc(Cl)cc1-c1cc(C)ncc1C(=O)Nc1nc2ccc(N3CCc4ccccc4C3)nc2s1	nM	158
COc1cccc(F)c1-c1cc(C)ncc1C(=O)Nc1nc2ccc(C3=CCC(O)CC3)nc2s1 (stereo not shown)	nM	153
Cc1cc(-c2c(F)cccc2OC(F)F)c(C(=O)Nc2nc3ccc(C4=CCC(O)CC4)nc3s2)cn1 (stereo not shown)	nM	73.6

**Q:** Item COc1cnc(Cl)cc1-c1cc(C)ncc1C(=O)Nc1nc2ccc(N3CCC=CC3=O)nc2s1 has what recorded IC50?
**A:** 26.1

----------
- TARGET SYSTEM: helicase domain of the Pol θ protein (Homo sapiens, UniProt O75417)
- Construct: The helicase domain of the Pol θ protein was purified from insect protein expression system; made in house; host or cells: insect protein expression system
- RUN DESCRIPTION: Biochemical Activity Assay (ADP Glo Assay) of Pol θ inhibitor, ATPase activity
- SETTINGS: ADP-Glo assay, ATPase activity of Pol θ helicase domain, ssDNA substrate; read-out: Biochemical assay IC50
For each entry below, report its pIC50 value.
One number for each entry, as −log10 of the molar value.

# count of solved cases: 3
COMPOUND	pIC50
COc1cnc(Cl)cc1-c1cc(C)ncc1C(=O)Nc1nc2c(s1)CN(C1CCC(O)CC1)CC2 (stereo not shown)	6.70
COc1cnc(Cl)cc1-c1cc(C)ncc1C(=O)Nc1nc2ccc(C3=CCC(O)CC3)cc2s1 (stereo not shown)	8.45
COc1cnc(Cl)c(F)c1-c1cc(C)ncc1C(=O)Nc1nc2ncc(-c3ccn(C)n3)cc2s1	8.07

Would you kindly look at the next entry?
**Q:** Item COc1cnc(Cl)cc1-c1cnccc1C(=O)Nc1nc2ccc([C@H]3CC[C@@H](O)CC3)nc2s1 has what recorded pIC50?
**A:** 7.60
